- targetOrSystem: integrin alphaV beta3 (Homo sapiens, UniProt P06756;P06756;P05106 P06756:31-889,P06756:891-1048,P05106:27-788)
- Sequence (P06756 31-889, chain 1 of 3): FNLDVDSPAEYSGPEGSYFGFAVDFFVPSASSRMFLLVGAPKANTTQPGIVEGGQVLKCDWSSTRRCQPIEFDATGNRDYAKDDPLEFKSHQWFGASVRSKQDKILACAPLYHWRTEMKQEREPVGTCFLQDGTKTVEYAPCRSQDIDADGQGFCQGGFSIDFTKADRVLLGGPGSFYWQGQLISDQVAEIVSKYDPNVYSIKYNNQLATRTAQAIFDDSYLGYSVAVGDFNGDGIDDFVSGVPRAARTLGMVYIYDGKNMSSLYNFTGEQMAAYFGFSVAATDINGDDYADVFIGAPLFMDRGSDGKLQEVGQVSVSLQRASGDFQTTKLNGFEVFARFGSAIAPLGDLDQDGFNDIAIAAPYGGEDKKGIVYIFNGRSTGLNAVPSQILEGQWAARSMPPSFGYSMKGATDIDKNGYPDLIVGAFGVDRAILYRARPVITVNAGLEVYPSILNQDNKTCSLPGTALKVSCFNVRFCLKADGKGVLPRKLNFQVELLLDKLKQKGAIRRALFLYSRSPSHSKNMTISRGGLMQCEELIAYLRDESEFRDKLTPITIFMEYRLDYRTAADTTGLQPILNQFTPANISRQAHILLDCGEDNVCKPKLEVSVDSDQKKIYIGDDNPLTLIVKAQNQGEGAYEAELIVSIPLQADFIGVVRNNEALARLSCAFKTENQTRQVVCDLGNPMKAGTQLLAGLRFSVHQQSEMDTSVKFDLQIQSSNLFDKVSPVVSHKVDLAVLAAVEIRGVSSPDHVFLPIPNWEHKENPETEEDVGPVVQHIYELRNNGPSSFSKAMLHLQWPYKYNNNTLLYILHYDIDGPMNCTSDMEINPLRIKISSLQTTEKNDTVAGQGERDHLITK
- Sequence (P06756 891-1048, chain 2 of 3): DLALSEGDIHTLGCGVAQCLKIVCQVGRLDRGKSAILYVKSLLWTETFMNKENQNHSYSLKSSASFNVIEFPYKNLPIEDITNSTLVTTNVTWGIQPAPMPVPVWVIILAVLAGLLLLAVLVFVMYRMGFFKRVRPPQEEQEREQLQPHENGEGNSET
- Sequence (P05106 27-788, chain 3 of 3): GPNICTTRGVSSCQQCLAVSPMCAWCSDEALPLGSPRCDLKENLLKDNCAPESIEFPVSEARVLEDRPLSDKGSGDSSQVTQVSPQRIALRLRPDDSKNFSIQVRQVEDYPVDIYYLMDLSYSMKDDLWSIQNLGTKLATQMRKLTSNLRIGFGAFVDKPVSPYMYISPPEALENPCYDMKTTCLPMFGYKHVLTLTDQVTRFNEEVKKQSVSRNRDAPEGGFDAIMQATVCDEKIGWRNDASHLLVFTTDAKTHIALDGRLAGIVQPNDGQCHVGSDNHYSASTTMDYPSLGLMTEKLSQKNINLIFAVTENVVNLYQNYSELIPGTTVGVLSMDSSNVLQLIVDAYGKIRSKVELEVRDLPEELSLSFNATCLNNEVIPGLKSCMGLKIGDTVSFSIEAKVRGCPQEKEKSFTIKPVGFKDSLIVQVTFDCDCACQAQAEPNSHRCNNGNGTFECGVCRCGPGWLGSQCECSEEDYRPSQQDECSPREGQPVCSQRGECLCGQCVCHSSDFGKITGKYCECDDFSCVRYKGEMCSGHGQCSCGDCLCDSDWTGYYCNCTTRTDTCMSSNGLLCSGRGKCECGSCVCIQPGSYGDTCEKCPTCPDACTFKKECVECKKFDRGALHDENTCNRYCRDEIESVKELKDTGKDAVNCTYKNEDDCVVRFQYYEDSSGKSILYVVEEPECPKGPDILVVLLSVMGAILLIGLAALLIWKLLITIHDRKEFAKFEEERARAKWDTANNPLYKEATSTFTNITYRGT
- assayText: microtiter plate, streptavidin-AP; Mg2+, Ca2+, Mn2+, pH 7.5, 37 C
metric: pKd
In textbook form, pKd equals minus log to base ten of the concentration in mol/L.

input: So what's the measured pKd for this one? 17.16 (ssRNA, 2'-F C and U) RNA: GGGAGACAAGAAUAAACGCUCAAUUCAACGCUGUGAAGGGCUUAUACGAGCGGAUUACCCUUCGACAGGAGGCUCACAACAGGC
output: 8.10
